- Test system: LP-1
- PROTOCOL TEXT: Cytotoxicity against human LP-1 cells after 24 to 72 hrs by SRB assay
- Type: functional
# if measured GI50 < 600 nM: t  # else: f

// query Determine whether this compound shows GI50 lower than 600 nM (ties excluded): "CCOc1cc(Br)cc2c1OCC([N+](=O)[O-])=C2"
// result t

// query Determine whether this compound shows GI50 lower than 600 nM (ties excluded): CCOc1cccc2c1OC(c1ccc(C#N)cc1)C([N+](=O)[O-])=C2 (stereo unspecified)
// result t

// query Determine whether this compound shows GI50 lower than 600 nM (ties excluded): CCOc1cccc2c1OC(c1ccc(F)cc1)C([N+](=O)[O-])=C2 (stereo unspecified)
// result t

// query Determine whether this compound shows GI50 lower than 600 nM (ties excluded): CCOc1cccc2c1OC(c1ccccc1)C([N+](=O)[O-])=C2 (stereo unspecified)
// result f

// query Determine whether this compound shows GI50 lower than 600 nM (ties excluded): "CCOc1cccc2c1OCC([N+](=O)[O-])=C2"
// result f

// query Determine whether this compound shows GI50 lower than 600 nM (ties excluded): CCOc1cccc2c1OC(c1ccc(OC)cc1)C([N+](=O)[O-])=C2 (stereo unspecified)
// result f
